Source: the supplement of paper PMC12632987

- Study Target: GABARAP, O95166
- Sequence (O95166 whole entry, the tested form may be a part): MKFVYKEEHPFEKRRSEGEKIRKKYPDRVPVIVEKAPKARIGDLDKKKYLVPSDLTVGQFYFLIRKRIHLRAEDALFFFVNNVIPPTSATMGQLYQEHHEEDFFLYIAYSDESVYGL
- Protocol Description: median log2 fold change of GCK-ALFA target abundance (FLAG IP / Myc IP barcode read proportion) (log2 ratio); each designed protein is fused to an ALFA-tag nanobody in HEK293 cells to bring the named protein to FLAG-tagged glucokinase (GCK); Myc marks an untargeted standard; higher = target protein stabilised (more abundant)
- Recorded Conditions: target protein: 3xFLAG-MCP-GCK-ALFA reporter; HEK293 landing pad (RPLP)
The full ranking holds about 4,500 sequences; the median of “median log2 fold change of GCK-ALFA target abundance (FLAG IP / Myc IP barcode read proportion)” is about 0.078, and the lowest 2% start at about -0.6. Shown is part of a subset that was picked to be rich in the lowest values.
We use 0.08 as the dividing line for median log2 fold change: on or above the line is Yes, below is No.

Take a look at these entries with their results.
Binder	Category Label
GBRAP_52_6151 (protein) AAARAAAYAREFVAAVRAGDEEKARAIMKEIAATLDDEEIALFLREVARLVAGLSPEDRERVVEAVLEFEDIAVAAGHDEDILSYETARVAGAAYEALQR	No
GBRAP_52_6153 (protein) ARERAREYAEAFVAAVKAGDEERARAIMEEIAATLNDEEIELFLEEVARLVEGLTPEERERVVEAVLEFEDIAVAAGHDEELLSYHTARVAGAAYDALQK	No
GBRAP_160_3978 (protein) SEEIEKLKKEIKELAEEAKELIEGESYEERLTIVRVMFGEILMLLMSNENVSDETEEEVAKVGDETIAYLEANPDLTEEEIKELIKEAEKKIFEILEKNE	Yes
GBRAP_196_5416 (protein) KYLEEIKELEKESEEEVKDIELSDWTIVVNFTPENLEEEAEKTAEIAKDLGNPEIVIVHDGTLEEMLEALKLLREKLKEKGVVSKISVDSRAREEAEEKA	Yes

**Q:** Check this binder for median log2 fold change at or above 0.08: GBRAP_137_3672 (protein) MIDAKIEIEDGLAYAELTYKGSLEEAKKAAEIAEEIAGKIPGIAISTKVDEDGTLTIDLGGTLEQIMKFLKELAKALNVTINVTIKDLDTGETTKETIKA
**A:** Yes

**Q:** hey, is median log2 fold change for this one >= 0.08? GBRAP_160_4725 (protein) EEEIKEFVEEFREEFLETLELTKDESKENAKALFRGTAGEILQDAFENPFLTDEQEDVVAEILDELVEELEKNFDASLEEKKEIVEEKMEELLEKLLELS
**A:** No

**Q:** Could you verify whether the entry GBRAP_139_3718 (protein) SAAEEKIEKAKEIVEKYKDDLEKLAKELAKLISEVDGETALEIVRAAAEELKDWSWEEWEEFIELLEKELKELGFDEDDVLAIKGEFEAVMAKHLMAKEA shows median log2 fold change of no less than 0.08?
**A:** Yes

**Q:** Is median log2 fold change at least 0.08? Consider GBRAP_26_5464 (protein) MEEAFREASDRVDEIAAKLSNPEAAAAVRAEADTILLELEERIEAGEDIEKAVKEAEEEFLKEAREIGKEEGLPEEEIERLEKELSEVFKELEERLKKAK
**A:** Yes

**Q:** Decide: median log2 fold change of GBRAP_184_5038 (protein) AIKEVTIEAKDLEELKAKLAELEEEMKNFKGDLIVHVKSPKFTKEMVEELMSTLKNMLDKGYISSATVGLDGEMTEEVVDLAVKLADEAGIKVVLALDEE >= 0.08?
**A:** Yes
